# System: ChaGo-K-1
# assay.text: relative viability (nuclei count vs DMSO), 5 days (fraction); higher = more cells survive
# conditions: first compound 500 µM
quantity.name: relative viability

| compound | reported |
| --- | --- |
| O=C(O)CCCCC(CCSCc1ccccc1)SCc1ccccc1 (stereo not drawn) [CPI-613] + N=C(N)NC(=N)NCCc1ccccc1 [Phenformin] (partner 250 µM) | 0.124 |
| O=C(O)CCCCC(CCSCc1ccccc1)SCc1ccccc1 (stereo not drawn) [CPI-613] + COc1cccc2cc(-c3nc([C@H]4CC[C@H](C(=O)O)CC4)n4ncnc(N)c34)[nH]c12 [OSI-027] (partner 0.5 µM) | 0.0966 |
| O=C(O)CCCCC(CCSCc1ccccc1)SCc1ccccc1 (stereo not drawn) [CPI-613] + O=C(CCCCCCC(=O)Nc1ccccc1)NO [Vorinostat] (partner 1 µM) | 0.301 |
